- TARGET_SYSTEM: Renin (Homo sapiens, UniProt P00797)
- PROTOCOL_DETAILS: Inhibitory activity against human plasma renin
pIC50: −log10 of the molar value. Where a SMILES comes first, the peptide text is derived from it. [ ]: non-standard residue; d: D form. The star is where a group is joined. hhPhe = N[C@@H](CCCc1ccccc1)C(=O)O; X3 = CC(=O)[C@H](CCCCN)N*; For = O=C*
MEASUREMENT_LABEL: pIC50

COMPOUND | pIC50
CC[C@H](C)[C@H](NC(=O)[C@H](CCCc1ccccc1)NC(=O)[C@H](Cc1c[nH]cn1)NC(=O)[C@H](Cc1cn(C=O)c2ccccc12)NC(=O)[C@@H]1CCCN1)C(=O)N[C@@H](Cc1ccccc1)C(N)=O (H-PW(For)H[hhPhe]IF-NH2) | 7.17
CC[C@H](C)[C@H](NC(=O)[C@H](CCCc1ccccc1)NC(=O)[C@H](Cc1cnc[nH]1)NC(=O)[C@H](Cc1ccccc1)NC(=O)[C@@H]1CCCN1C(C)=O)C(=O)N[C@@H](Cc1cnc[nH]1)C(=O)N[C@@H](CCCCN)C(C)=O (Ac-PFH[hhPhe]IH-X3) | 7.34

----------
- TARGET_SYSTEM: Renin (Homo sapiens, UniProt P00797)
- Sequence (P00797 whole entry): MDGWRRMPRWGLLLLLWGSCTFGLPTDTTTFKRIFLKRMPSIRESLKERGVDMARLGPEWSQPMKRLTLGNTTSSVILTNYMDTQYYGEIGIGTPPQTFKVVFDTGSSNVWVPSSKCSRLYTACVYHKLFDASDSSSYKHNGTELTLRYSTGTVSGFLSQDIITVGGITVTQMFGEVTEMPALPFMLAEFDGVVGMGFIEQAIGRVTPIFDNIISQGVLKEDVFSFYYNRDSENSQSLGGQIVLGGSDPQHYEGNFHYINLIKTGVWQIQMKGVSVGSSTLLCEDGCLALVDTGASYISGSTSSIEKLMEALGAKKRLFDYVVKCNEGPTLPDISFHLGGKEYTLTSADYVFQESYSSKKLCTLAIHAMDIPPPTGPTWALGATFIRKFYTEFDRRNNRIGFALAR
- PROTOCOL_DETAILS: Inhibitory activity against human plasma renin
*1 amine or outer side, *2 acyl side, *3 side chain or, on linkers, in order; H or OH if unused. Where a SMILES comes first, the peptide text is derived from it. [ ]: non-standard residue; d: D form. The star is where a group is joined. X1 = CC(C)CC(N[*:1])C(O)CC(=O)[*:2]; hhPhe = N[C@@H](CCCc1ccccc1)C(=O)O; X3 = CC(=O)[C@H](CCCCN)N*; Orn = NCCC[C@H](N)C(=O)O; For = O=C*
MEASUREMENT_LABEL: IC50 (µM)

Solved entries:
COMPOUND | UNIT_TEXT | IC50
CC(C)[C@H](NC(=O)[C@H](Cc1ccccc1)NC[C@H](Cc1ccccc1)NC(=O)[C@H](Cc1cnc[nH]1)NC(=O)[C@H](Cc1ccccc1)NC(=O)[C@@H]1CCCN1C(=O)[C@H](N)Cc1cnc[nH]1)C(=O)N[C@@H](Cc1ccc(O)cc1)C(=O)O | µM | 0.58
CC[C@H](C)[C@H](NC(=O)[C@H](CCCc1ccccc1)NC(=O)[C@H](Cc1c[nH]cn1)NC(=O)[C@H](Cc1cn(C=O)c2ccccc12)NC(=O)[C@@H]1CCCN1C(=O)[C@H](Cc1cn(C=O)c2ccccc12)NC(=O)[C@@H]1CCCN1)C(=O)N[C@@H](Cc1ccccc1)C(N)=O (H-PW(For)PW(For)H[hhPhe]IF-NH2) | µM | 0.03
CC[C@H](C)[C@H](NC(=O)[C@H](CCCc1ccccc1)NC(=O)[C@H](Cc1c[nH]cn1)NC(=O)[C@H](Cc1cn(C=O)c2ccccc12)NC(=O)[C@@H]1CCCN1)C(=O)N[C@@H](Cc1cn(C=O)c2ccccc12)C(N)=O (H-PW(For)H[hhPhe]IW(For)-NH2) | µM | 0.24
CC(C)[C@H](NC(=O)[C@H](CCCN)NC(=O)[C@H](Cc1c[nH]cn1)NC(=O)[C@H](Cc1ccccc1)NC(=O)[C@@H]1CCCN1)C(=O)N[C@@H](Cc1ccc(O)cc1)C(=O)N[C@@H](CCCCN)C(N)=O (H-PFH[Orn]VYK-NH2) | µM | 100
CC[C@H](C)[C@H](NC(=O)[C@H](CCCc1ccccc1)NC(=O)[C@H](CCCCN)NC(=O)[C@H](Cc1ccccc1)NC(=O)[C@@H]1CCCN1C(=O)[C@H](Cc1c[nH]cn1)NC(=O)[C@@H]1CCCN1)C(=O)N[C@@H](Cc1ccccc1)C(N)=O (H-PHPFK[hhPhe]IF-NH2) | µM | 3.9
CC[C@H](C)[C@H](NC(=O)CC(O)C(CC(C)C)NC(=O)[C@H](Cc1cnc[nH]1)NC(=O)[C@H](Cc1ccccc1)NC(=O)[C@@H]1CCCN1C(=O)[C@H](Cc1cnc[nH]1)NC(=O)[C@@H]1CCCN1C(C)=O)C(=O)N[C@@H](Cc1cnc[nH]1)C(=O)N[C@@H](CCCCN)C(=O)O (some centres not stated) (Ac-PHPFH[X1]IHK-OH) | µM | 0.02
CC[C@H](C)[C@H](NC(=O)[C@H](CCCc1ccccc1)NC(=O)[C@H](Cc1cnc[nH]1)NC(=O)[C@H](Cc1ccccc1)NC(=O)[C@@H]1CCCN1C(=O)[C@H](Cc1cnc[nH]1)NC(=O)[C@@H]1CCCN1)C(=O)N[C@@H](Cc1cnc[nH]1)C(=O)N[C@@H](CCCCN)C(C)=O (H-PHPFH[hhPhe]IH-X3) | µM | 0.03
CC[C@H](C)[C@H](NC(=O)[C@H](CCCc1ccccc1)NC(=O)[C@H](Cc1c[nH]cn1)NC(=O)[C@H](Cc1ccccc1)NC(=O)[C@@H]1CCCN1C(=O)[C@H](Cc1cn(C=O)c2ccccc12)NC(=O)[C@@H]1CCCN1)C(=O)N[C@@H](Cc1cn(C=O)c2ccccc12)C(N)=O (H-PW(For)PFH[hhPhe]IW(For)-NH2) | µM | 0.027

A = CC[C@H](C)[C@H](NC(=O)CC(O)C(CC(C)C)NC(=O)[C@H](Cc1c[nH]cn1)NC(=O)[C@H](Cc1ccccc1)NC(=O)[C@@H]1CCCN1)C(=O)N[C@@H](Cc1c[nH]cn1)C(=O)N[C@@H](CCCCN)C(=O)O (some centres not stated) (H-PFH[X1]IHK-OH)
B = CC[C@H](C)[C@H](NC(=O)[C@H](CCCc1ccccc1)NC(=O)[C@H](Cc1c[nH]cn1)NC(=O)[C@H](Cc1ccccc1)NC(=O)[C@@H]1CCCN1C(=O)[C@H](Cc1c[nH]cn1)NC(=O)[C@@H]1CCCN1)C(=O)N[C@@H](Cc1ccccc1)C(N)=O (H-PHPFH[hhPhe]IF-NH2)
C = CC(C)CC(NC(=O)[C@H](Cc1c[nH]cn1)NC(=O)[C@H](Cc1ccccc1)NC(=O)[C@@H]1CCCN1)C(O)CC(N)=O (some centres not stated)
D = CC[C@H](C)[C@H](NC(=O)CC(O)C(CC(C)C)NC(=O)[C@H](Cc1cnc[nH]1)NC(=O)[C@H](Cc1ccccc1)NC(=O)[C@@H]1CCCN1)C(=O)NC(=O)[C@@H](N)Cc1ccccc1 (some centres not stated)
Exercise: Let's sort these by IC50, smallest first. Go ahead? Please respond with the labels ordered as the question requires.
Solution: B, D, A, C
(B: 0.03 µM, D: 0.22 µM, A: 0.9 µM, C: 68 µM)

----------
- TARGET_SYSTEM: UniProt:P00797
- PROTOCOL_DETAILS: Inhibitory activity against human plasma renin
- Format: cell-free
pIC50: −log10 of the molar value. *1 amine or outer side, *2 acyl side, *3 side chain or, on linkers, in order; H or OH if unused. Where a SMILES comes first, the peptide text is derived from it. [ ]: non-standard residue; d: D form. The star is where a group is joined. Sta = CC(C)C[C@H](N)[C@@H](O)CC(=O)O; X1 = CC(C)CC(N[*:1])C(O)CC(=O)[*:2]; For = O=C*
MEASUREMENT_LABEL: pIC50

Example results:
COMPOUND | pIC50
CC(C)C[C@H](NC(=O)[C@H](Cc1c[nH]cn1)NC(=O)[C@H](Cc1ccccc1)NC(=O)[C@@H]1CCCN1C(=O)[C@H](Cc1c[nH]cn1)NC(=O)[C@@H]1CCCN1)[C@@H](O)CC(N)=O (H-PHPFH[Sta]-NH2) | 6.05
CC[C@H](C)[C@H](NC(=O)CC(O)C(CC(C)C)NC(=O)[C@H](Cc1cnc[nH]1)NC(=O)[C@H](Cc1ccccc1)NC(=O)[C@@H]1CCCN1C(=O)[C@H](Cc1cn(C=O)c2ccccc12)NC(=O)[C@@H]1CCCN1)C(=O)N[C@@H](Cc1cn(C=O)c2ccccc12)C(N)=O (stereo not given in full) (H-PW(For)PFH[X1]IW(For)-NH2) | 7.80

a = CC(C)[C@H](NC(=O)[C@@H](CCCc1ccccc1)NC(=O)[C@H](Cc1c[nH]cn1)NC(=O)[C@H](Cc1ccccc1)NC(=O)[C@@H]1CCCN1C(=O)[C@H](Cc1c[nH]cn1)NC(=O)[C@@H]1CCCN1)C(=O)N[C@@H](Cc1ccc(O)cc1)C(=O)N[C@@H](CCCCN)C(N)=O
b = CC[C@H](C)[C@H](NC(=O)CC(O)C(CC(C)C)NC(=O)[C@H](Cc1ccccc1)NC(=O)[C@H](Cc1ccccc1)NC(=O)[C@@H]1CCCN1)C(=O)NC(=O)[C@@H](N)Cc1ccccc1 (stereo not given in full)
Exercise: Given the listed items, does a or b have the lesser reported pIC50? When you have decided, please share the label of that item.
Solution: b
